# apparent KD of MS2 coat protein per entry
Test system: MS2 coat protein
Test: apparent KD of MS2 coat protein; designed switch direction (-1 OFF switch, 1 ON switch): -1; higher = weaker reporter binding
Settings: input ligand: FMN 200 uM
Use nM as the unit, but write only the number.

Previously resolved entries follow.
UAUUCGCAAGCGAGAUCCCACAUGAGGAUCACCCAUGUGCUCGUCUUAUAAGGUACUGUGACGAGAGUCACGGUACC [Mat - Sensor, turn-off var - Eli Mod - D82] (Eterna round: R97, puzzle: Sensor, turn-off variant 1): 16.8
CUGAGCUGACGGAGAUCCAACAUGAGGAUCACCCAUGUCUCAAAAGCUUUUUGCUCGUCUUAUCCUCCUCAGUUCAC [Mat - Sensor, turn-off var - Eli Mod - D55] (Eterna round: R97, puzzle: Sensor, turn-off variant 1): 26.5
UACAUGAGGAUCACCCAUGUUUUGUCGUGUAUGGUAUUUAUCUAGGAUAUCAUUUGAUUUAGUUAUGAGAAGGAGAAUAUUAAU [JMF's solution 86] (Eterna round: R96, puzzle: Exclusion NG 3): 33.6
CAUGAUUGGGAAGGAUAUUGACCUAGUUAGCGCCGAGAAGGUCCCUGUCACAUGAGGAUCACCCAUGUGAGUCUGGUGUUCGAG [Ex NG1 #95] (Eterna round: R96, puzzle: Exclusion NG 1): 29.7
AAUACAAGCUAUUGAUCCCACAUGAGGAUCACCCAUGUACCUGGCCGUGAGACCAGGUUUACAAUAGCUCGUCUUAU [Sensor-V1 #48] (Eterna round: R97, puzzle: Sensor, turn-off variant 1): 107

Then this sequence:
Ask: Recall the reported apparent KD of MS2 coat protein of UACAGUCAUCCUUAUUGUUACAUGAGGAUCACCCAUGUUAGUAUAGUUAAGUUAUGUGAGUUUGUUGUUCGUUUUAU [JR_STOV1_v2_Sub078] (Eterna round: R97, puzzle: Sensor, turn-off variant 1) on MS2 coat protein and write it down.
Reply: 125

----------
Test system: MS2 coat protein
Assay: apparent KD of MS2 coat protein; designed switch direction (-1 OFF switch, 1 ON switch): 1; higher = weaker reporter binding
Conditions: Eterna round: R98; input ligand: FMN 200 uM
# apparent KD of MS2 coat protein per entry
Use nM as the unit, but write only the number.

Previously resolved entries follow.
GCUGCUAUCGCAGGAUAUUACAUGGGAAAUAAUACAUGAGGAUCACCCAUGUAAAAUAUCGUAAAUAAGAAGGGCGAUAGCAGC [Lame State 4 - Jieux - Same State NG 2]: 239
GCUUGCGACGAAGGAUAUGGGUGCCUAAACACGAGGAUCACCCGUGUACAGGAAGCUAAAUGCUCUCAGAAGGUCGUCGCAGGC [United States 10 - Jieux - Same State NG 2]: 18.4
CGAGACACUUGAGGAUAUGCUCAGGAUAACUGAGCAGAAGGCAGGGAAACCUGAGGAUCACCCAGGUAACUGGAAAGUCUCGAA [Same State NG1 - A3C, U17G Submission 5B]: 46.3
GGAGGUCACAUUUACAUGAGGAUCACCCAUGUCGAAAGACAUGAGGAUAUGCUACCUAAUUGGUAGCAGAAGGCAUGGACCUCC [Mat - Same State NG 3 - JL Mod - D28]: 226

Then this sequence:
Ask: Provide apparent KD of MS2 coat protein value for the following sequence: GUACGGAUCAUAGGAUAUCUGCCGGCCGGAGUUAGAGAAGGGUGAUCUAGGAUGCCACAUGAGGAUCACCCAUGUCAACAUCGC [Vemati]
Reply: 20.9
